Here's a roundup of pIC50 values tested on Ubiquitin carboxyl-terminal hydrolase 7 (Homo sapiens, UniProt Q93009), taken from various published works.
pIC50: −log10 of the molar value.

INSERT INTO measurements (molecule, result) VALUES
  ('C[C@@H]1C[C@H](NC(=O)C2Cc3cc(Cl)cc(-c4ccnc5[nH]ccc45)c3O2)CCN1 (stereo partly shown)', '5.00 to 6.00'),
  ('CCC(O)c1cc2nccc(-c3cc(Cl)cc4c3O[C@@H](c3ocnc3CNCCO)C4)c2s1 (stereo partly shown)', '> 6.00'),
  ('O=C(CCc1ccccc1)N1CCC(O)(Cn2cnc3ccc([N+](=O)[O-])cc3c2=O)CC1', '< 5.00'),
  ('O=C1CCC(=O)N1Cc1cc2nccc(-c3cc(Cl)cc4c3O[C@@H](c3onc5c3CNCC5)C4)c2s1', '> 6.00'),
  ('Cc1ccc(S(=O)(=O)N2Cc3nccc(-c4cc(Cl)cc5c4O[C@@H](c4onc6c4CNCC6)C5)c3C2)cc1', '4.52 to 5.00');

pIC50 of `COCc1nnc2nc3c(nn12)-c1ccccc1C3=O` , assay on Ubiquitin carboxyl-terminal hydrolase 7 (Homo sapiens, UniProt Q93009), is 6.34

pIC50 of `N#CN1Cc2[nH]nc(CNC(=O)c3cn4cc(Cl)ccc4n3)c2C1` , assay on Ubiquitin carboxyl-terminal hydrolase 7 (Homo sapiens, UniProt Q93009), is > 5.00

pIC50 of `Cc1cc(Cl)cc(-c2ncnc3cc(CN4C(=O)CCC4=O)sc23)c1CN1C[C@@H](C)NC[C@@H]1C` , assay on Ubiquitin carboxyl-terminal hydrolase 7 (Homo sapiens, UniProt Q93009), is 7.00 to 8.00

pIC50 of `CNC(=O)CCc1cc2nccc(-c3cc(Cl)cc4c3O[C@@H](C(=O)N3CCNCC3)C4)c2s1` , assay on Ubiquitin carboxyl-terminal hydrolase 7 (Homo sapiens, UniProt Q93009), is > 6.00

pIC50 of `O=C([C@H]1C[C@@H]1c1ccccc1)N1CCC(O)(Cn2cnc3cc(Cl)ccc3c2=O)CC1` , assay on Ubiquitin carboxyl-terminal hydrolase 7 (Homo sapiens, UniProt Q93009), is < 5.00

pIC50 of `C[C@]1(CO)C[C@H](N2CCOc3cc(C#N)cc(-c4cc[n+]([O-])c5cc(Cn6ncc(C7(C(F)(F)F)CC7)cc6=O)sc45)c32)CN1` , assay on Ubiquitin carboxyl-terminal hydrolase 7 (Homo sapiens, UniProt Q93009), is 7.00 to 8.00

pIC50 of Cc1cc(Cl)cc(-c2ccnc3cc(CN4C(=O)C5CC5C4=O)sc23)c1CC1CNCCCO1 (stereo not shown) , assay on Ubiquitin carboxyl-terminal hydrolase 7 (Homo sapiens, UniProt Q93009), is > 8.00
